TEST SYSTEM: GluR1 (Rattus norvegicus)
Construct: expressed in transfected cells; host or cells: COS-7 or HEK-T/17
Sequence (P19490 19-907 isoform P19490-2 limits assumed): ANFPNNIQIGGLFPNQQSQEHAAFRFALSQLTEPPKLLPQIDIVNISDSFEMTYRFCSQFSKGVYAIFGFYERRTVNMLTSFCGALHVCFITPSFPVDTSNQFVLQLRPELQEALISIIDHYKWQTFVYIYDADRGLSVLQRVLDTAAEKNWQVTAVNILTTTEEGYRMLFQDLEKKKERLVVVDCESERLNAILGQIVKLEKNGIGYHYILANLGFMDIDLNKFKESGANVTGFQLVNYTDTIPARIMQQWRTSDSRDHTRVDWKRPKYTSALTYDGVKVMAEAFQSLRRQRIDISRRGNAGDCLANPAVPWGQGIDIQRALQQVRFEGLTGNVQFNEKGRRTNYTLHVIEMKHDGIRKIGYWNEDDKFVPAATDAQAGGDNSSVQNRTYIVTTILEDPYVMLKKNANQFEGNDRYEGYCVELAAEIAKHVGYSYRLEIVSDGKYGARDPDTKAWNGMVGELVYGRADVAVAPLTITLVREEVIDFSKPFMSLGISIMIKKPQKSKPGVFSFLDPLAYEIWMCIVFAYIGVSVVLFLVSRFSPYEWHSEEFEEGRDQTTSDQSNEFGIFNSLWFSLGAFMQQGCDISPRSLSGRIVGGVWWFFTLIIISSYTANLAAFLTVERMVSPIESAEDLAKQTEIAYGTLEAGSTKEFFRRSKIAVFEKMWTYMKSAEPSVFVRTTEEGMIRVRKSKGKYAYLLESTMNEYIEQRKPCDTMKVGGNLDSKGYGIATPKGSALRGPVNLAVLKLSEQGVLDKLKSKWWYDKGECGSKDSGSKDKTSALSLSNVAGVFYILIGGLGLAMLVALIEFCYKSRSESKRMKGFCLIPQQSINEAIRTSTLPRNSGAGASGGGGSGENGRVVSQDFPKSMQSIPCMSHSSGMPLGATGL
EXPERIMENTAL PROTOCOL: Radioligand displacement ([3H]AMPA), Example 1
Type: binding
PROTOCOL CONDITIONS: Tables 1-2; read-out: GluR1 binding affinity (displacement of [3H]AMPA)
PROPERTY LABEL: Ki

>>> print(df.to_string())
                                   molecule  property_label  reported
0  NC(CC1(C(=O)O)CC2OCC(O)C(O)C2O1)C(=O)O (stereo not drawn) [8,9-epi-neoDH, 8,9-epi-neodysiherbaine]              Ki  > 100 µM
1  N[C@@H](C[C@]1(C(=O)O)C[C@H]2OCC[C@@H](O)[C@H]2O1)C(=O)O              Ki  > 100 µM
2  NC(CC1(C(=O)O)CC2OCC(O)C(O)C2O1)C(=O)O (stereo not drawn) [9-epi-neoDH, 9-epi-neodysiherbaine]              Ki  > 100 µM
3  NC(CC1(C(=O)O)CC2OCC(O)C(O)C2O1)C(=O)O (stereo not drawn) [8-epi-neoDH, 8-epi-neodysiherbaine]              Ki     17 µM
